system: ATP; assay: switch fluorescence ratio, 500 uM ATP over buffer (Cy3 cluster intensity, sum of 5 cycles each) (fold (ratio)); higher = stronger signal-on switching upon ATP binding; sequences stand for … in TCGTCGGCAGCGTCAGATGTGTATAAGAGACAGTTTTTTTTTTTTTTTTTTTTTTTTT…TC; conditions: aptamer strand: ATP DNA aptamer (quencher-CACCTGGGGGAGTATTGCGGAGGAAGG + anchor), 100 nM annealed; ATP concentration: 500 uM;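 also: ATP exposure 15 min at 22 °C before imaging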
Recorded switch fluorescence ratio by entry

[
  {
    "recordSequence": "TTTAACGTAC",
    "measurementTarget": "ATP",
    "switch fluorescence ratio": 1.83
  },
  {
    "recordSequence": "CGTGCTCAGG",
    "measurementTarget": "ATP",
    "switch fluorescence ratio": 1.16
  },
  {
    "recordSequence": "TGGGTCGTGC",
    "measurementTarget": "ATP",
    "switch fluorescence ratio": 0.99
  },
  {
    "recordSequence": "TTTGGGATCT",
    "measurementTarget": "ATP",
    "switch fluorescence ratio": 0.988
  },
  {
    "recordSequence": "GAGACCTTTT",
    "measurementTarget": "ATP",
    "switch fluorescence ratio": 1.13
  },
  {
    "recordSequence": "GAATTTTGTA",
    "measurementTarget": "ATP",
    "switch fluorescence ratio": 0.984
  },
  {
    "recordSequence": "TTTGTTAGA",
    "measurementTarget": "ATP",
    "switch fluorescence ratio": 0.988
  },
  {
    "recordSequence": "TAGGACACGT",
    "measurementTarget": "ATP",
    "switch fluorescence ratio": 1.03
  },
  {
    "recordSequence": "TAGGGGCGAG",
    "measurementTarget": "ATP",
    "switch fluorescence ratio": 0.989
  },
  {
    "recordSequence": "TATGGTTTCC",
    "measurementTarget": "ATP",
    "switch fluorescence ratio": 1.03
  },
  {
    "recordSequence": "ATGGGGGGG",
    "measurementTarget": "ATP",
    "switch fluorescence ratio": 1.01
  }
]

---

system: ATP; assay: switch fluorescence ratio, 500 uM ATP over buffer (Cy3 cluster intensity, sum of 5 cycles each) (fold (ratio)); higher = stronger signal-on switching upon ATP binding; sequences stand for … in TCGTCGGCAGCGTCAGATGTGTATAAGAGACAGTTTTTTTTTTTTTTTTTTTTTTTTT…TC; details: aptamer strand: ATP DNA aptamer (quencher-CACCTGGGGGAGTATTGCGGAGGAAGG + anchor), 100 nM annealed; ATP concentration: 500 uM;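 also: ATP exposure 15 min at 22 °C before imaging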

[
  {
    "recordSequence": "CGGAGCGACG",
    "switch fluorescence ratio": 1.03
  },
  {
    "recordSequence": "CCAAATTGTG",
    "switch fluorescence ratio": 1.03
  },
  {
    "recordSequence": "AAGGGAGAGA",
    "switch fluorescence ratio": 1.02
  },
  {
    "recordSequence": "GGTGTTGGTG",
    "switch fluorescence ratio": 1.01
  },
  {
    "recordSequence": "TTTTAGTTCC",
    "switch fluorescence ratio": 1.05
  },
  {
    "recordSequence": "AAAACGAAAT",
    "switch fluorescence ratio": 1.02
  },
  {
    "recordSequence": "AGGGTTCGGA",
    "switch fluorescence ratio": 1.01
  },
  {
    "recordSequence": "GGAATCCGTT",
    "switch fluorescence ratio": 1.03
  },
  {
    "recordSequence": "GCCATGTTGG",
    "switch fluorescence ratio": 1
  },
  {
    "recordSequence": "CCTTGTATAT",
    "switch fluorescence ratio": 1.08
  }
]
